SYSTEM: CDK2 (human)
ASSAY_PROCEDURE: Enzyme Assay
EXPERIMENTAL_PARAMETERS: concentration not given here
PROPERTY_NAME: inhibition (%)

> print(dat)
                                   molecule  quantitative.result
1  CC(=O)CC(C(=O)N1CCC(Nc2nc(N)c(C(=O)c3c(F)cccc3F)s2)CC1)c1ccccc1 (stereo not given)                   17
2  CC(C)(CO)C(=O)N1CCC(Nc2nc(N)c(C(=O)c3c(F)cccc3F)s2)CC1                   41
3  Nc1nc(NC2CCN(C(=O)COc3cccc(Cl)c3)CC2)sc1C(=O)c1c(F)cccc1F                   67
4  Nc1nc(NC2CCN(C(=O)[C@H](O)Cc3ccccc3)CC2)sc1C(=O)c1c(F)cccc1F                   42
5  Nc1nc(NC2CCN(C(=O)c3csnn3)CC2)sc1C(=O)c1c(F)cccc1F                   68

(1) Nc1nc(NC2CCN(C(=O)C/C=C/c3ccccc3)CC2)sc1C(=O)c1c(F)cccc1F
(2) C#CCCC(=O)N1CCC(Nc2nc(N)c(C(=O)c3c(F)cccc3F)s2)CC1
Qu. Between 1 and 2 , which one shows the larger inhibition value? Answer with the label corresponding to your selection.
Ans. 2
(2: 52%, 1: 29%)

* * *

SYSTEM: CDK2 (human)
ASSAY_PROCEDURE: Enzyme Assay
EXPERIMENTAL_PARAMETERS: concentration not given here
PROPERTY_NAME: inhibition (%)

Below: 10 molecules and their reported inhibition.
> print(dat)
                                    molecule  quantitative.result
 1  Nc1nc(NC2CCN(C(=O)/C=C/c3ccncc3)CC2)sc1C(=O)c1c(F)cccc1F                   80
 2  Nc1nc(NC2CCN(C(=O)C3CCC(=O)CC3)CC2)sc1C(=O)c1c(F)cccc1F                   48
 3  Nc1nc(NC2CCN(C(=O)Cc3ccccc3)CC2)sc1C(=O)c1c(F)cccc1F                   66
 4  CC(C)=CC(=O)N1CCC(Nc2nc(N)c(C(=O)c3c(F)cccc3F)s2)CC1                  -19
 5  Nc1nc(NC2CCN(C(=O)CCCc3cccs3)CC2)sc1C(=O)c1c(F)cccc1F                   65
 6  CCCCOc1ccc(C(C)(C)CC)cc1S(=O)(=O)N1CCC(Nc2nc(N)c(C(=O)c3c(F)cccc3F)s2)CC1                  -30
 7  CC(C)[C@@H](O)C(=O)N1CCC(Nc2nc(N)c(C(=O)c3c(F)cccc3F)s2)CC1                   34
 8  Nc1nc(NC2CCN(C(=O)COc3cc(Cl)c(Cl)cc3Cl)CC2)sc1C(=O)c1c(F)cccc1F                  -10
 9  CCC(=O)C(=O)N1CCC(Nc2nc(N)c(C(=O)c3c(F)cccc3F)s2)CC1                   15
10  Nc1nc(NC2CCN(C(=O)c3ccc(F)cc3F)CC2)sc1C(=O)c1c(F)cccc1F                   67

(I) COCCC(=O)N1CCC(Nc2nc(N)c(C(=O)c3c(F)cccc3F)s2)CC1
(II) Nc1nc(NC2CCN(C(=O)c3ccc(-n4cccc4)cc3)CC2)sc1C(=O)c1c(F)cccc1F
Qu. Between I and II , which one shows the larger inhibition value? When you have decided, please share the label of that item.
Ans. II
(II: 69%, I: 33%)
